Reference source: the supplement of paper PMC7877785

Assay: self-splicing fitness, log relative to wild type (ln ratio); higher = more splicing; Tetrahymena group I intron in knt gene, E. coli kanamycin selection, DiMSum; sequences stand for … in CUCUCU…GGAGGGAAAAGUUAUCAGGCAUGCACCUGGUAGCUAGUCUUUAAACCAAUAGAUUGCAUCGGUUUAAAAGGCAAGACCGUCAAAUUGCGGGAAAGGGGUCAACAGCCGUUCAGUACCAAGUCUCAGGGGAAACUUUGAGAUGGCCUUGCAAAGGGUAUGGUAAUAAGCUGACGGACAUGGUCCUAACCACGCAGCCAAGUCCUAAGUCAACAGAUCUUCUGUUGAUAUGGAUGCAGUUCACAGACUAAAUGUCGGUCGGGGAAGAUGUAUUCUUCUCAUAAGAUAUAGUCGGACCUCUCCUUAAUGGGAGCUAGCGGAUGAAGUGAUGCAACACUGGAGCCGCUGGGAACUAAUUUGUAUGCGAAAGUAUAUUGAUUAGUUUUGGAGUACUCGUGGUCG;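 also: selection with 25 µg/mL kanamycin versus none on LB agar overnight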
Conditions: 37 °C
Recorded self-splicing fitness (ln) split into classes lower band (below -2), central band (-2 to below -1), upper band (-1 or more)

Example results:
UACCAGCAAUAUUACGGGGU lower band
UGCGAGCAAUAUUACGUCUA upper band
UUCUAGCAAUAUUACGGACG upper band
ACUAAGCAAUAUUACGAUAU lower band
UUUCAGCAAUAUUACGAUGU central band
GGCUAGCAAUAUUACGAUAC upper band

Could you place "UAGGAGCAAUAUUACGAUAU" in its proper category? Many thanks. lower band

Into which category would you place "CUAUAGCAAUAUUACGGCAC" ? central band

Assign a bin to "UACAAGCAAUAUUACGGACC" upper band

Lab log: "CAGUAGCAAUAUUACGCACG" — assign self-splicing fitness (ln) category upper band

Exam item: assign "AACAAGCAAUAUUACGCCCU" to the correct category. upper band

Lab log: "GGGUAGCAAUAUUACGAUUG" — assign self-splicing fitness (ln) category lower band

Which bin should I file "AGGAAGCAAUAUUACGCACG" under? central band

###

Assay: self-splicing fitness, log relative to wild type (ln ratio); higher = more splicing; Tetrahymena group I intron in knt gene, E. coli kanamycin selection, DiMSum; sequences stand for … in CUCUCU…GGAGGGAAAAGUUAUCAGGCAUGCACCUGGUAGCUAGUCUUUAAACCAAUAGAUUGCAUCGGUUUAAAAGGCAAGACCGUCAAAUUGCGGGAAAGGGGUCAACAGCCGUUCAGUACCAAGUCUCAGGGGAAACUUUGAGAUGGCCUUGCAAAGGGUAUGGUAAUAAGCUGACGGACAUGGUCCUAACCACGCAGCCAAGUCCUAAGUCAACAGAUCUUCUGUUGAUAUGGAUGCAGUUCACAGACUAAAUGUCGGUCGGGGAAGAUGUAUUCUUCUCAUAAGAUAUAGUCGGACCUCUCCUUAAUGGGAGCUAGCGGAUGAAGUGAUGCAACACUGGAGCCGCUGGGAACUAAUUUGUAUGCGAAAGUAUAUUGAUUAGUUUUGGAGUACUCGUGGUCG
Settings: 30 °C
Assign Y to entries whose self-splicing fitness (ln) meets or exceeds -2; assign N to the rest.

CACAAGCAAUAUUACGAUCG Y
UCAAAGCAAUAUUACGGAUC N
AGCGAGCAAUAUUACGGCUG Y

Please tell me: is the sequence "GAGUAGCAAUAUUACGUUGG" at or over -2 in terms of self-splicing fitness (ln)? N

hey, is self-splicing fitness (ln) for this one >= -2? "AUAGAGCAAUAUUACGUAAU" Y

Check this sequence for self-splicing fitness (ln) at or above -2: "UUAGAGCAAUAUUACGCUCA" Y

self-splicing fitness (ln) >= -2 for "CGUAAGCAAUAUUACGUUUA" ? Y
